target: Fibroblast growth factor 10 (Homo sapiens) (UniProt O15520); assay: FGF10 binders on small-molecule microarrays, primary screen, biochemical, small-molecule microarray, 635 nm fluorescence (AID 1102); conditions: FGF10 binding, fluorescence 635 nm, higher = more signal
Sequence (O15520 whole entry, looked up): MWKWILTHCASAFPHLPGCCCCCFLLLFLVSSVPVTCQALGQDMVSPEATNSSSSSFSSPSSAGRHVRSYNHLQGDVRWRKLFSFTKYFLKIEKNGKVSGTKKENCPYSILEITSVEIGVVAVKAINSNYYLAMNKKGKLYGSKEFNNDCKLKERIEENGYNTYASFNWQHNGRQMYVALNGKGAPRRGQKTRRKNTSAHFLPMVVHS
Decide by composite z-score: equal to or exceeding 0.5 means Yes, less means No.

Compound	Classification
O=C1c2ccccc2[C@@]2(Cc3ccccc3N(C3CC3)C2=O)[C@H](c2ccc(CO)cc2)N1Cc1ccccc1C(F)(F)F	No

Threshold query (composite z-score >= 0.5) on CCOc1ccc(N2C(=O)/C(=C/C=C/c3ccccc3OC)S(=O)(=O)C2c2cccc([N+](=O)[O-])c2)cc1 (stereo not drawn)
No

---

test: binders of probe aFGF10 on microarray, primary screen, stem cell growth factor project, biochemical, small-molecule microarray, fluorescence 635/667 (AID 1071); conditions: higher = more signal;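 note: score merges 667 nm spot intensity and signal to noise from triplicate slides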
Measurement Kind: composite z-score

Examples with answers:
Given Smiles	Test Result
COC(=O)[C@@]1(Cc2ccc(F)cc2)[C@@H]2C(=CC(=O)[C@H]2CC(=O)C(=O)N(C)C)CN1C(=O)c1ccccc1	0.663
CCc1cc2c(nc1CC)CCN(CCC(C)=NOC[C@@H](O)[C@H]1O[C@@H]3OC(C)(C)O[C@@H]3[C@H]1O)C2	0.0851
CC(C)C[C@@H]1NC(=O)[C@H]2C[C@@H](C(=O)O)[C@@H](c3ccc(O)cc3)N2C1=O	-0.211
O=C1[C@H]2[C@H]3[C@H](O)[C@H](O)CC(=NO[C@@H]4O[C@H](CO)[C@@H](O)[C@H](O)[C@H]4O)[C@@H]3CC[C@H]2C(=O)N1c1ccc(F)cc1F	0.442
COCCCNC(=O)[C@@]1(C)c2ccccc2C(=O)N(Cc2ccc(OC(F)(F)F)cc2)[C@H]1c1ccc(CO)cc1	-0.0476

For the molecule "CO[C@H]([C@@H](C)[C@H](OC)c1ccccc1)[C@H](C)[C@@H](OC)[C@H](C)C(C)=O" , what composite z-score is on record?
-0.154

So what does the record say about composite z-score for "COCCOC(=O)N1C(=O)[C@@]2(c3cc(C#Cc4ccc(OC)cc4)ccc31)[C@H](C(=O)N1CCN(c3ncccn3)CC1)[C@H]1C(=O)O[C@H](c3ccccc3)[C@H](c3ccccc3)N1[C@@H]2c1ccc(OCCO)cc1" ?
0.3

---

assay: P. aeruginosa biofilm formation inhibitors, primary screen, strain PAO1, LB-PBS medium, absorbance 600 nm (AID 1176); note: test concentration not given here; conditions: P. aeruginosa PAO1 growth/biofilm, A600, 12 h; higher = more signal
Listed below: z-score values for each entry.
Write the value as a bare number.

Observe how each entry below is paired with its result.
Given Smiles	z-score
C#C[C@@H]1Oc2ccccc2S(=O)(=O)N2CCC[C@H]12	0.0359
CC(C)(C)N1C(=O)[C@H]2[C@H]3[C@H](O)[C@H](O)CC(=NO[C@@H]4O[C@H](CO)[C@@H](O)[C@H](O)[C@H]4O)[C@@H]3CC[C@H]2C1=O	0.0821
CC(CCC(=O)OC[C@H]1O[C@H](C#Cc2ccccc2)C=C[C@@H]1Oc1ccc(C)cc1)=NOC[C@@H](O)[C@H]1O[C@@H]2OC(C)(C)O[C@@H]2[C@H]1O	-0.324

Would you kindly share the measured z-score for "COc1ccc([Si](C)(C)[C@@H]2[C@@H](CC(=O)N3CCC[C@H]3CO)O[C@]3(C(=O)N(Cc4cccc(N5CCC5=O)c4)c4ccccc43)[C@H]2C)cc1" ?
1.19

What value of z-score has been recorded for this entry: "CC(C)=CCCC(C)=CCON=C1C[C@@H](O)[C@@H](O)[C@@H]2[C@@H]3C(=O)N(C[C@@H]4CCCO4)C(=O)[C@@H]3CC[C@@H]12"
-0.261

Quick check: z-score of "CC(C)CON=C1C[C@@H](O)[C@@H](O)[C@@H]2[C@@H]3C(=O)N([C@@H](C)c4ccccc4)C(=O)[C@@H]3CC[C@H]12" ?
0.07

---

Item-by-item account of composite z-score
molecular target: Torsin-1A-interacting protein 1 (Homo sapiens); experiment: LAP1 binders from COS7 cell lysate, primary screen, small-molecule microarray, 635/667 nm fluorescence (AID 1116); settings: COS7-hLAP1 lysate binding, 635 nm fluorescence, higher = more signal
The answer should be written as a number, with no unit following it.

Use the examples below as a reference point.
Molecule	composite z-score
CC(C)(C)N1C(=O)[C@H]2[C@H]3[C@H](O)[C@H](O)CC(=NO[C@@H]4O[C@H](CO)[C@@H](O)[C@H](O)[C@H]4O)[C@@H]3CC[C@H]2C1=O	0
CO[C@@H]1COC(=O)[C@H](C)NC(=O)[C@@H](C)COC(=O)CCC[C@H]1C	0.268
CC(CCN1CCc2nc(-c3ccccc3)c(-c3ccccc3)cc2C1)=NO[C@H](C)c1cn([C@@H]2COC[C@H]2O)nn1	0.438

What value of measured composite z-score is listed for CCOC(=O)[C@H](Cc1ccccc1)NC(=O)CCC1CC(OC(=O)NCc2ccc3c(c2)OCO3)CC2(CCCC(COC(=O)NCc3cccc(C(F)(F)F)c3)O2)O1 (stereo partly drawn) ?
0.251

# query: composite z-score of entry "CC(C)[C@@H](OCc1ccccc1)[C@H](C)C=NO[C@H](C)c1cn([C@H](CO)Cc2ccccc2)nn1"
0.113

Can you share its composite z-score? I mean this molecule: "COC(=O)c1c(CC[C@@H](CO)NC(=O)N[C@H](Cc2ccccc2)Cn2cc(-c3ccccc3N)nn2)oc(C(C)=O)c1C(=O)OC"
1.54

Bench note: what composite z-score did "C=CC[C@]1(C(=O)NCc2ccccc2)N=C(c2ccc(OCCCO)cc2)O[C@H]1c1ccccc1" show?
1.62

Name the reported composite z-score value associated with the molecule "C[C@@H]1C=CCC(=O)OC[C@H](C)C(=O)N[C@@H](C)C(=O)OC1"
0.789

---

assay: RPMI8226 myeloma cell viability, profiling panel, resazurin fluorescence, basal, 24 h, PK04 Diversity Set (AID 1180); settings: higher = more signal;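 note: RPMI8826 multiple myeloma cell line at 5000 cells per well; test concentration not given here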
Overview of reported z-score across a group of molecules:
Give a plain numeric answer without units written out.

Worked examples follow.
Molecule	z-score
CCCNC(=O)OC[C@H]1O[C@H](CCON=CC[C@@H]2C=C[C@H](OC(C)=O)[C@@H](COC(C)=O)O2)C=C[C@@H]1Oc1ccc(OC)cc1	0.477
CC(=O)C[C@H](O)[C@@H](NC(=O)OC(C)(C)C)C(C)C	-0.228
C#CCCCON=C1C[C@@H](O)[C@@H](O)[C@@H]2[C@@H]3C(=O)N([C@@H](C)c4ccccc4)C(=O)[C@@H]3CC[C@H]12	0.357

// returns reported z-score for input CCOC(=O)[C@H](Cc1ccccc1)NC(=O)CCC1CC(OC(=O)NCc2ccc3c(c2)OCO3)CC2(CCCC(COC(=O)NCc3cccc(C(F)(F)F)c3)O2)O1 (some centres not stated)
0.352

Given the molecule "COC(=O)[C@@]1(Cc2ccc(F)cc2)[C@@H]2C(=CC(=O)[C@H]2CC(=O)C(=O)N(C)C)CN1C(=O)c1ccccc1" , what is its reported z-score?
-2.94

Entry COC(=O)[C@H](C)NC(=O)CCC1CC(OC(=O)NCCc2ccc(F)cc2)CC2(CCCC(COC(=O)NCC(c3ccccc3)c3ccccc3)O2)O1 (some centres not stated) has what z-score?
0.809

Any idea what its z-score is? The molecule is "CO[C@H]([C@@H](C)[C@H](OC)c1ccccc1)[C@H](C)[C@@H](OC)[C@H](C)C(C)=O"
-0.0764

---

tested on: Human papillomavirus type 1a E7 protein (residues 1-88); experiment: HPV1a E7 small-molecule binders, primary screen, biochemical, small-molecule microarray, residues 1-88, 635 nm (AID 1129); details: small-molecule microarray binding, fluorescence 635 nm; higher = more signal
Classes (composite z-score): I = under -0.005, II = from -0.005 up to 0.5, III = 0.5 and over

Field: example entries. Status: answers known.
Molecule	Classification
COC(=O)C1=CCC(c2cccc(Cl)c2)O1 (stereo not given)	II
CO[C@H]1COC(=O)[C@@H]2CCCN2C(=O)[C@@H](C)COC(=O)CC=C[C@@H]1C	I

Returns: class label. Input: "CCN1C(=O)[C@H]2[C@H]3[C@H](O)[C@H](O)CC(=NOCc4ccccc4)[C@@H]3CC[C@H]2C1=O"
III

Any idea which band "C[N+](C)(C)CCCCCCNC(=O)[C@@H]1C[C@@H]2C(=O)N3CCC[C@H]3C(=O)N2[C@@H]1c1cccc(OCCO)c1" is in?
II

Class? Entry: "COCCCNC(=O)[C@@]1(Sc2ccc(C)cc2)CC(=O)N(Cc2ccccc2)[C@@H]1c1ccc(CO)cc1I"
II

Categorize the following entry: "C=CCOC(=O)[C@H]1[C@@H]2C(=O)O[C@@H](c3ccccc3)[C@@H](c3ccccc3)N2[C@@H](c2ccc(OCCOC(=O)[C@H]3C[C@H]4C(=O)N[C@@H](Cc5ccccc5)C(=O)N4[C@H]3c3ccc(O)cc3)cc2)[C@]12C(=O)Nc1ccccc12"
III

Hello team, could you let me know which band the following molecule falls into: "CCCC[C@@H]1C[C@H]1[C@@H](NS(=O)(=O)c1cccc2cccnc12)c1ccc(-c2ccccc2)cc1"
III

State the band of "O=C1[C@H]2[C@H]3[C@H](O)[C@H](O)CC(=NOC[C@@H](O)COCc4ccco4)[C@H]3CC[C@H]2C(=O)N1Cc1ccc2c(c1)OCO2"
I

Exam item: assign CC(C)N1CC=CC23O[C@@H]4C=CCCOC(=O)C4[C@H]2C(=O)N(CCCCCCO)[C@@H]3C1=O (stereo not given in full) to the correct category.
I

Looking at "CCOC(=O)C[C@H]1[C@H](OC(=O)c2ccc(C(=O)c3ccccc3)cc2)[C@@H](NC(=O)c2ccc(-c3ccccc3)cc2)c2cc(OCCCO)ccc2N1C(=O)c1ccc2ccccc2n1" , which class would you pick?
III

Determine which band this molecule sits in: "Cc1ccc(S[C@]2(C(=O)NCC(F)(F)F)CC(=O)N(Cc3ccccc3Cl)[C@@H]2c2ccc(CO)cc2I)cc1"
I

For this molecule, which bin applies? "CCCNC(=O)OC[C@H]1O[C@H](CCON=C[C@@H](OC)[C@H](C)C=CCC(=O)OC)C=C[C@@H]1Oc1ccc(OC)cc1"
I

Classify this molecule: "COC(=O)C1=C(C)N(Cc2ccccc2)[C@]23O[C@](C(=O)OC)(C(=O)N2[C@@H]1c1ccccc1)[C@H]1CCOC(=O)[C@H]13"
II

Please report the category associated with "COCC(=C=CC[C@@H](O)c1ccccc1OCCO)CCO" , nothing else.
III

State the class of the molecule shown: "CC(=O)OC[C@H]1O[C@H](C#CCCCc2ccccc2)C=C[C@@H]1OC(C)=O"
II

Reference source: PubChem BioAssay
